# credit: the supplement of paper PMC9170038

# apparent KD of MS2 coat protein values compiled below
system: MS2 coat protein; assay: apparent KD of MS2 coat protein; designed switch direction (-1 OFF switch, 1 ON switch): -1; higher = weaker reporter binding; details: input ligand: FMN 200 uM
Response body: numeric value in nM, unit text excluded.

Before answering, review these 4 worked examples.
>  <Chain Sequence>
CUGUUACAUGAGGAUCACCCAUGUGAGGAUAUGGUUCGGUACUGUCCUGUCGCGUACUCCAGAAGGCACGUGUU [1st #36] (Eterna round: R97, puzzle: Exclusion 1)

>  <Value Units>
nM

>  <apparent KD of MS2 coat protein>
46.5

$$$$
>  <Chain Sequence>
AGCGCCAUCGUGAGAUGGCGUAUUACAUGAGGAUCACCCAUGUAGGAUAUCGAUUGCUUUGCAGUCGAGAAGGGCAUGUCCCAG [JL ENG3 3.80 Mod J] (Eterna round: R96, puzzle: Exclusion NG 3)

>  <Value Units>
nM

>  <apparent KD of MS2 coat protein>
23

$$$$
>  <Chain Sequence>
ACAUGAGGAUCACCCAUGUGACAAGAAUGGCUGAUACAGAGAUAGGAUAUAGGUGCAUAUCUAACCUAGAAGGGUCAUGACUGG [Deportation 75 - Jieux - Exclusion NG 3] (Eterna round: R96, puzzle: Exclusion NG 3)

>  <Value Units>
nM

>  <apparent KD of MS2 coat protein>
53.4

$$$$
>  <Chain Sequence>
GAGUAGAGAGGAUAUGCAAUGAUCAUCGUACGAUGAGGCUGACAUGAGGAUCACCCAUGUAGAAGGCUCUGGUC [EX2 #20] (Eterna round: R97, puzzle: Exclusion 2)

>  <Value Units>
nM

>  <apparent KD of MS2 coat protein>
22.5

$$$$

Could you share which apparent KD of MS2 coat protein value was measured for UAAAGUAUAUAGGAUAUCUAGCUGGAUACAGCUAGAGAAGGAUGUACAUGAGGAUCACCCAUGUAAAUCAGUGA [Ex6/14-A3] (Eterna round: R97, puzzle: Exclusion 6) ?
33.9

For the sequence AGCGAGGUAGGAUAUACAUGAGGAUCACCCAUGUGCUUGCAUGGCGUGGAAUGUCGAGGUAGAAGGGCCAUGCC [EX3 #72] (Eterna round: R97, puzzle: Exclusion 3) , what apparent KD of MS2 coat protein is on record?
33.2

Look up apparent KD of MS2 coat protein for this sequence: GUCAGCUCGUCAGGAUAUGCACAUGAGGAUCACCCAUGUAAGAUCAAGCUGCUUCGGCAGCAAGUGCAGAAGGGACGAGCUGAU [ENG2/9-B3] (Eterna round: R96, puzzle: Exclusion NG 2)
156

Please report the recorded apparent KD of MS2 coat protein for GCGCGAAGGUAGGAUAUCGAGGGAUCUUCCCGCCGAGAAGGACCCACAUGAGGAUCACCCAUGUGGUGAUCCUG [eternacac ex6r4 sub9] (Eterna round: R97, puzzle: Exclusion 6) .
27.1

Endpoint output: apparent KD of MS2 coat protein of UAUUAGCAAGCGAGAUCCCACAUGAGGAUCACCCAUGUAGCAUCCAGAAUUACUGGGUGCAAAAGCUCGUCUUAUUA [Winner reversed engineered 4] (Eterna round: R97, puzzle: Sensor, turn-off variant 1) . Value?
25.4

What does the record list as apparent KD of MS2 coat protein for GCUAGGCAUGUCAGGAUAUGCUGUACCUUGGUACAGCAGAAGGGACAUGAGGAUCACCCAUGUGCCAACCUAGC [JL-BMX4-4.02] (Eterna round: R97, puzzle: Brourd's mod of Exclusion 4) ?
736
